- protocol_notes: yeast display, Sf9 membrane polyspecificity reagent, FACS + sequencing; frameworks hold sequencing errors
metric_name: polyreactivity (PSR sort gate)

[[record]]
seq_text = "QVQLVESCGGLVQAGGSLRLSCAASGSIFAYYAMGWYRQAPGKERDLVAAISRGGGSTYYADSVTGRFTLSRDNAKNTVYLQMNSLKQEDTAVYYCDAYYAKGRAYDYDYWGQGTQVTVSS"
endpoint_result = "high polyreactivity"

[[record]]
seq_text = "QVLLQESGGGLVQAGGSLRLSCAASGTISTDIRMGWYRLAPGKEREFVASIDGCSTTYYADSVKGRFTISRDNAKNTVYLQMNSLKPEDTAMYYCSAREATEFYLFYWGQGTQVTVSS"
endpoint_result = "low polyreactivity"

[[record]]
seq_text = "QVQLVESAGGLVQAGGSLSIICAASGFTFSPYTMGWYRKAPGKERELVAAINRRGVSTYYADSVKGRFTISRDNEKNTVYLQMNSLKPEDTAVYYCAAEWYYQYSIYRYGYWGQGTQVTVSS"
endpoint_result = "low polyreactivity"

[[record]]
seq_text = "QVQLVESGGGLVQAGGSLRLSCAASGSIFGWYAMGWYRQAPGKERELVAAISWDGGDTYYADSVKGRFTISRDNAKNTVYLQMNSLKPEDTAVYYCAAELGYYDYGSYYSYDYWGQGTQVTVSS"
endpoint_result = "high polyreactivity"

[[record]]
seq_text = "QVQLVESGGGLVQAGGSLRLSCAASGNIFIYNAMGWYREAPGKERELVAVISNSGSTYYADSVKGRFTISRDNAKNTVYLQMHSLKPEDSAVYYCNKDGGGDSYWYDYWGQGTHVTVSS"
endpoint_result = "low polyreactivity"


Please go through the list and note polyreactivity (PSR sort gate) for each sequence.
1. QVQLVESAGGLVQAGGSLRLSCAASGSIFNVYDMGWYRQAPGKERELVAAITWSGGRTYYADSVKGRFTISRDNAKNTVYLQMNSLKPEDTAVSSCSARRWWVKSWRRFDYWGQGTQVTVSS
2. QVQLVESGGGLVQAGGSLRLSCAASGGISDVYAMGWYRQAPGKERELVAAINWSGGSTYYADSVKGRFTISRDNAKNTVYLQMNSLKPEDTAVYYCAADPGIIGTFDWYDYWGQGTQVTVSS
3. QVQLVESGGGLVQAGGSLRLSCAASGITFNNNGMGWYRQAPGKERELVASIRSGGRTNYADSVKGRFTISRDNAKNTVYLQMNSLKPEDTAVYYCAAVWYTSRQKYDYWGQGTQVTVSS
4. QVQLVESVGGLVQAGGSLRLSCAASGSIFRSYAMGWYRQAPGKERELVAAISWSGASTYYADSVKGRFTISRDNAKNTVYLQMNSLKPEDTAVYYCAARPRYWRWYSGDYWGQGTQVTVSS
5. QVQLVESGGGLVQEGGSLRLSCAASGRTICLNDMGWYRQAPGKERELVAGITRSGGSTYYADSVKGRFTISRDNAKNTVYLQMNSLKPEDSAVYYCAADFKPLYYDEYDYWGQGTQVTVSS
6. QVQLVESGGGLVQAGGSLLLSCAASRSTFDTNAMGWYSQAPGKERELVAAIRWSTGNTYYADSVKGRFTISRDNAKKTDYLQKNSLKPEDTAVYYCAAYTGKHYKEGYWGQVTQVTVSS

1: high polyreactivity; 2: low polyreactivity; 3: low polyreactivity; 4: high polyreactivity; 5: low polyreactivity; 6: low polyreactivity
